Tested on: thyroid hormone receptor (endogenous TRα and TRβ)
Experiment: GH3-TRE-Ag-Followup confirmation (TOX21_TR_LUC_GH3_Agonist_Followup, aeid 2226)
Type: cell-based, rat
Settings: hit call from tcpl
Record form. Attribute: GH3-TRE-Ag-Followup hitc. Fill in for each entry.
Give bare numbers.

Answered cases to consult:
-- ask Form field - read-out: GH3-TRE-Ag-Followup hitc; system: thyroid hormone receptor (endogenous TRα and TRβ); submitted item: Cc1ccc(O)cc1 [Cresol]
-- reply 1

-- ask Form field - read-out: GH3-TRE-Ag-Followup hitc; system: thyroid hormone receptor (endogenous TRα and TRβ); submitted item: Cc1occc(=O)c1O [Maltol]
-- reply 0

-- ask Form field - read-out: GH3-TRE-Ag-Followup hitc; system: thyroid hormone receptor (endogenous TRα and TRβ); submitted item: N[C@@H](Cc1ccc(Oc2cc(I)c(O)c(I)c2)c(I)c1)C(=O)O [3,3',5'-Triiodo-L-thyronine]
-- reply 1

Below: the item to evaluate.
-- ask Form field - read-out: GH3-TRE-Ag-Followup hitc; system: thyroid hormone receptor (endogenous TRα and TRβ); submitted item: CN(C)c1ccc(N=O)cc1 [N,N-dimethyl-4-nitrosoaniline]
-- reply 1

* * *

Experiment: in vitro
Details: rat, gh3-tre-luc cells, AC50 (uM) modified / 1000, Tox21_110001=Tox21_301172; viability, 1 nM T3 present, 24 h
experimental_readout: CC50 at 24 h

-- ask Param item = CCOP(=O)(OCC)OP(=O)(OCC)OCC [Tetraethyl pyrophosphate] ; retrieve measured CC50 at 24 h.
-- reply > 90 µM

* * *

Record form. Attribute: CC50 at 24 h. Fill in for each entry.
Assay: in vitro
Conditions: rat, gh3-tre-luc cells, AC50 (uM) modified / 1000

Answered cases to consult:
-- ask Param item = Nc1ccc(NC(=O)c2ccc(N)cc2)cc1 [4,4'-Diaminobenzanilide] ; retrieve measured CC50 at 24 h.
-- reply > 90 µM

-- ask Param item = CCSC(=O)Cl ; retrieve measured CC50 at 24 h.
-- reply > 100 µM

-- ask Param item = CCC(C)(CC)c1cc(NC(=O)c2c(OC)cccc2OC)on1 ; retrieve measured CC50 at 24 h.
-- reply > 90 µM

-- ask Param item = CCCCCCCCN ; retrieve measured CC50 at 24 h.
-- reply > 90 µM

-- ask Param item = CCCCCOC(=O)CCCCC [Pentyl hexanoate] ; retrieve measured CC50 at 24 h.
-- reply > 90 µM

Below: the item to evaluate.
-- ask Param item = O=S(=O)(O)c1cc(Cl)c(Cl)cc1Cl ; retrieve measured CC50 at 24 h.
-- reply > 90 µM

* * *

Test: in vitro
Details: rat, gh3-tre-luc cells, AC50 (uM) modified / 1000, Tox21_110001=Tox21_200839; viability, 1 nM T3 present, 24 h
experimental_readout: CC50 at 24 h

-- ask Param item = Cc1ccc2ccccc2c1 [2-Methylnaphthalene] ; retrieve measured CC50 at 24 h.
-- reply > 90 µM

* * *

Test: in vitro
Conditions: rat, gh3-tre-luc cells, AC50 (uM) modified / 1000, Tox21_110001=Tox21_302262; viability, 1 nM T3 present, 24 h
experimental_readout: CC50 at 24 h

-- ask Param item = CNP(=O)(OC)Oc1ccc(C(C)(C)C)cc1Cl (stereo not shown) [Crufomate] ; retrieve measured CC50 at 24 h.
-- reply > 90 µM

* * *

Record form. Attribute: GLOBAL CYTOTOXICITY cytotox.number_Active. Fill in for each entry.
Tested on: Tox21 cell viability assays (different cell types)
Assay: Global cytotoxicity: eighteen Tox21 cell viability assays
Type: cell-based
Structures can show the parent of a compound that is named as a salt.
Give bare numbers.

Answered cases to consult:
-- ask Param item = N[C@@H](Cc1cc(I)c(Oc2ccc(O)c(I)c2)c(I)c1)C(=O)[O-].[Na+] [3,3ʹ,5-Triiodo-L-thyronine sodium salt, reference compound] ; retrieve measured GLOBAL CYTOTOXICITY cytotox.number_Active.
-- reply 0

-- ask Param item = Nc1ccc(S(=O)(=O)Nc2nccs2)cc1 [Sulfathiazole] ; retrieve measured GLOBAL CYTOTOXICITY cytotox.number_Active.
-- reply 0

-- ask Param item = CC1=C(/C=C/C(C)=C/C=C/C(C)=C\C(=O)O)C(C)(C)CCC1 [13-cis Retinoic acid, reference compound] ; retrieve measured GLOBAL CYTOTOXICITY cytotox.number_Active.
-- reply 5

-- ask Param item = O=C(O)Cc1cc(I)c(Oc2ccc(O)c(I)c2)c(I)c1 [Tiratricol, reference compound] ; retrieve measured GLOBAL CYTOTOXICITY cytotox.number_Active.
-- reply 4

-- ask Param item = COc1ccc(OC)c(C(O)C(C)N)c1 (centres unmarked) [Methoxamine hydrochloride] ; retrieve measured GLOBAL CYTOTOXICITY cytotox.number_Active.
-- reply 0

-- ask Param item = Cc1cc(NC(=O)C(=O)O)cc(C)c1Oc1ccc(O)c2c1CCC2 [CP-634384, reference compound] ; retrieve measured GLOBAL CYTOTOXICITY cytotox.number_Active.
-- reply 0

-- ask Param item = CSCC[C@H](NC(=O)[C@H](Cc1ccc(OS(=O)(=O)O)cc1)NC(=O)[C@@H](N)CC(=O)O)C(=O)NCC(=O)N[C@@H](Cc1c[nH]c2ccccc12)C(=O)N[C@@H](CCSC)C(=O)N[C@@H](CC(=O)O)C(=O)N[C@@H](Cc1ccccc1)C(N)=O [Sincalide, reference compound] ; retrieve measured GLOBAL CYTOTOXICITY cytotox.number_Active.
-- reply 0

***
-- ask Param item = CC1=C(/C=C/C(C)=C\C=C\C(C)=C\C(=O)O)C(C)(C)CCC1 [9-cis Retinoic acid, reference compound] ; retrieve measured GLOBAL CYTOTOXICITY cytotox.number_Active.
-- reply 0

* * *

Assay: in vitro
Conditions: rat, gh3-tre-luc cells, AC50 (uM) modified / 1000
Where a name gives a salt, the structure may show the parent alone.
experimental_readout: CC50 at 24 h

-- ask Param item = O=C(Nc1ccc(/C=C/c2ccc(NC(=O)c3cc(S(=O)(=O)O)c4cccnc4c3O)cc2S(=O)(=O)O)c(S(=O)(=O)O)c1)c1cc(S(=O)(=O)O)c2cccnc2c1O ; retrieve measured CC50 at 24 h.
-- reply > 50 µM

-- ask Param item = COC(=O)C(C)O (centres unmarked) [Methyl 2-hydroxypropanoate] ; retrieve measured CC50 at 24 h.
-- reply > 90 µM

-- ask Param item = NC(N)=Nc1nc(CSCCC(N)=NS(N)(=O)=O)cs1 ; retrieve measured CC50 at 24 h.
-- reply > 90 µM

-- ask Param item = Cc1[nH]cnc1CN1CCc2c(c3ccccc3n2C)C1=O [Alosetron hydrochloride] ; retrieve measured CC50 at 24 h.
-- reply > 50 µM

# per-item lookup of CC50 at 24 h; items listed below
1. CN1CCN(c2cc3c(nn2)Oc2ccccc2N3C)CC1
2. COCCCOc1ccnc(C[S+]([O-])c2nc3ccccc3[nH]2)c1C (centres unmarked) [Rabeprazole sodium]
3. Cn1nnnc1SCC1=C(C(=O)O)N2C(=O)[C@@H](NC(=O)[C@H](O)c3ccccc3)[C@H]2SC1 [Cefamandole sodium]
4. COC(=O)CSc1cc(/N=c2\sc(=O)n3n2CCCC3)c(F)cc1Cl

-- reply
1: > 50 µM; 2: > 90 µM; 3: > 20 µM; 4: > 90 µM

* * *

Test: in vitro
Conditions: rat, gh3-tre-luc cells, AC50 (uM) modified / 1000, Tox21_110001=Tox21_201815; viability, 1 nM T3 present, 24 h
experimental_readout: CC50 at 24 h

-- ask Param item = O=P1(NCCCl)OCCCN1CCCl (stereo not shown) [Ifosfamide] ; retrieve measured CC50 at 24 h.
-- reply > 90 µM

* * *

Assay: in vitro
Conditions: rat, gh3-tre-luc cells, AC50 (uM) modified / 1000
Record form. Attribute: CC50 at 24 h. Fill in for each entry.

-- ask Param item = COc1ccc2nc(N)sc2c1 ; retrieve measured CC50 at 24 h.
-- reply > 90 µM

# per-item lookup of CC50 at 24 h; items listed below
1. c1csc(SSc2cccs2)c1 [2-Thienyl disulfide]
2. CC(C)N(C(=O)CCl)c1ccccc1
3. CC1(C)[C@@H](O[C@H]2O[C@H](C(=O)O)[C@@H](O)[C@H](O)[C@H]2O[C@@H]2O[C@H](C(=O)O)[C@@H](O)[C@H](O)[C@H]2O)CC[C@]2(C)[C@H]3C(=O)C=C4[C@@H]5C[C@@](C)(C(=O)O)CC[C@]5(C)CC[C@@]4(C)[C@]3(C)CC[C@@H]12 [Ammonium glycyrrhizinate trihydrate]

-- reply
1: > 90 µM; 2: 48.7 µM; 3: > 70 µM

* * *

Test: in vitro
Parameters: species or system GH3-TRE-Luc (rat pituitary); CellTiter-Fluor viability run in parallel with antagonist mode (1 nM T3), loss of viability
Settings: rat, gh3-tre-luc cells, AC50 (uM) modified / 1000, Tox21_110001=Tox21_202322, viability, 1 nM T3 present
experimental_readout: CC50 at 24 h

-- ask Param item = [CH3][Sn]([Cl])([Cl])[Cl] ; retrieve measured CC50 at 24 h.
-- reply > 90 µM
